target: Nuclear receptor subfamily 5 group A member 2 (Homo sapiens); test: LRH-1 (NR5A2) inverse agonists, retest, confirmation, cell-based, luminescence (AID 651613); settings: cell-based LRH-1 luciferase reporter, inverse agonism; at 3.6 µM; active compounds read high;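 further: HEK293T cells co-transfected with LRH-1 and StAR promoter luciferase reporter; 0% = vehicle wells and 100% = parental cells lacking receptor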
inhibition: recorded values
Expressed in %, but write only the number.

Before answering, review these 8 worked examples.
| molecule | inhibition / % |
| --- | --- |
| CC1(C)CC(=O)C=C(c2ccc3ncccc3c2)C1 | 52.2 |
| COc1ccc(-c2cc(-c3nc4ccccn4c3NCc3ccccc3)ccc2OC)cc1 | 109 |
| CN(c1ncnc(N)c1[N+](=O)[O-])C1CCCCC1 | 56.7 |
| O=C1C=C(c2ccccc2)OC2(CCCC2)O1 | 67.3 |
| CC(=O)N1CCc2c(sc(NC(=O)Cc3ccc(F)cc3)c2C#N)C1 | 65.3 |
| CCCCSc1nc(SCC(=O)NCc2ccco2)c2c3c(sc2n1)COC(C)(CC)C3 (stereo not drawn) | 53.8 |
| COc1cccc(-c2cc(C(=O)Nc3ccncc3)c3ccccc3n2)c1 | 35.2 |
| Cc1cc(C(=O)CSc2nnnn2-c2ccccc2)c(C)n1-c1ccc2c(c1)OCO2 | 42.3 |

IN: Requested read-out: inhibition. Entry: CCn1c(=S)sc2c(=O)n(CC(=O)Nc3ccc(Cl)cc3)c(C)nc21
OUT: 55.2

IN: Which inhibition value is on record for CC(=O)Nc1ccc(-c2c(C)cc3oc(=O)cc(-c4ccccc4)c3c2C)cc1 ?
OUT: 57.9

IN: So what does the record say about inhibition for O=S(=O)(NCC1CCCO1)c1ccc(-c2ccc(S(=O)(=O)NCC3CCCO3)cc2)cc1 (stereo not drawn) ?
OUT: 69.5

IN: Entry under review: CC(=NNC(=S)Nc1cccc(C)c1)c1ccccn1 . Reported inhibition?
OUT: 99.3

IN: Look up inhibition: Nc1ccc(S(=O)(=O)NNC(=O)C(=O)NNc2ccccc2)cc1
OUT: 18.9

IN: Find the recorded inhibition belonging to Cc1ccc(NC2=C(N3CCCCC3)C(=O)c3ccccc3C2=O)cc1 and report it.
OUT: 12.3

IN: GET /values?readout=inhibition&item= Cc1cc(C)nc(NC(=O)c2ccc([N+](=O)[O-])o2)n1
OUT: 61.6

IN: May I ask what inhibition has been recorded for Cc1cc(C(C)(C)C)cc(C)c1C[n+]1ccc2ccccc2c1 ?
OUT: 99.2

IN: Tell me the measured inhibition of C1=C(CCNc2ncnc3c2[nH]c2ccccc23)CCCC1 , please.
OUT: 36

IN: Give its inhibition value. Item: COc1ccc(/C=N/NC(=O)c2cc(-c3ccc(C)cc3C)nc3ccccc23)cc1COC(C)=O
OUT: 52.8

IN: Which measured inhibition value corresponds to CN1C(=O)NC(c2ccccc2[N+](=O)[O-])C2=C1CC(C)(C)CC2=O (stereo not drawn) ?
OUT: 19

IN: What value of inhibition has been reported for the following molecule? Nc1nc2ccccc2cc1C(=O)NCc1ccc(-c2ccccc2)cc1
OUT: 59.4

IN: // returns reported inhibition for input CCC[N+]1(CC#CCC(c2ccccc2)c2ccccc2)CCCCC1
OUT: 104

IN: Given the entry CCCCCCC[N+](CC)(CC)CCCCc1ccc(Cl)cc1 , report its measured inhibition.
OUT: 79

IN: Query: inhibition; subject: Cc1ccc(NC(=O)COC(=O)c2cc(=O)c3ccccc3o2)c(Br)c1
OUT: 50.4

###

target: Nuclear receptor subfamily 5 group A member 2 (Homo sapiens) (UniProt O00482); test: LRH-1 (NR5A2) inverse agonists, retest, confirmation, cell-based, luminescence (AID 651613); settings: cell-based LRH-1 luciferase reporter, inverse agonism; at 3.6 µM; active compounds read high;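 further: HEK293T cells co-transfected with LRH-1 and StAR promoter luciferase reporter; 0% = vehicle wells and 100% = parental cells lacking receptor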
Sequence (O00482 whole entry, looked up): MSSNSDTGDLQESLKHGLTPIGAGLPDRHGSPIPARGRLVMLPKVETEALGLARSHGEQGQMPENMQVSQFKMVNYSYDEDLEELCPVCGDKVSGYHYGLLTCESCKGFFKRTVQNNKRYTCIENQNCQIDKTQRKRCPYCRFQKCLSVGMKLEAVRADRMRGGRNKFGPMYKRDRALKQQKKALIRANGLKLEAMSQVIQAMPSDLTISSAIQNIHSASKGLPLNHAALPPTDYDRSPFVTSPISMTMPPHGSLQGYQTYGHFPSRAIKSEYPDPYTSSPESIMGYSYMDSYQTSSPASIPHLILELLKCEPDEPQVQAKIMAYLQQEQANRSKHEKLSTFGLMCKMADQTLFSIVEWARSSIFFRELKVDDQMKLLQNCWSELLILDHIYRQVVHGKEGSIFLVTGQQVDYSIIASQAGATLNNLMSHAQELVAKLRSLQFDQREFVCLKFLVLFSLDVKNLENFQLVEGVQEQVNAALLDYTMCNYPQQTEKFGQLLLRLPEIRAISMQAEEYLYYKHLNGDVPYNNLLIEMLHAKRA
quantityName: inhibition (%)
Express the result in % but write the number alone.

Answered examples (4):
| molecule | inhibition (%) |
| --- | --- |
| CCCc1ccc(C(=O)O/N=C(\N)c2ccccn2)cc1 | -85.8 |
| CCC1=C(CC2NCCc3ccccc32)CC2c3cc(OC)c(OC)cc3CCN2C1 (stereo not given) | 98.3 |
| CN(Cc1cnc2nc(N)nc(N)c2n1)c1ccc(C(=O)N[C@@H](CCC(=O)O)C(=O)O)cc1 | 54.9 |
| COc1ccc(CCNC(=O)c2cc(-c3ccco3)on2)cc1OC | 43.8 |

Turning to the following molecule.
IN: State the recorded inhibition for this entry: CC(/C=C(\NC(=O)c1ccccc1)C(=O)N=Nc1c(O)[nH]c2ccc(C)cc12)=C\c1ccccc1
OUT: 31.7

###

test system: transactivating tegument protein VP16 (Human herpesvirus 1), Gal4-VP16 luciferase reporter; experiment: VP16 transactivation inhibitors, counter-screen for SRC3 inhibitor project, cell-based, luminescence, high throughput (AID 588794); conditions: mammalian cells, VP16-driven luciferase reporter luminescence; at 3.6 µM
Calls of active or inactive are those of the source. Rule as the data show it: active = inhibition above about 30%; inactive = the rest.
Please reply with one of these outcomes: active, inactive

| molecule | class |
| --- | --- |
| C=C1C(=O)c2sccc2C(c2ccc(OC)c(OC)c2)C1COC(C)=O (configuration not stated) | active |
| CC(C)(C)n1ncc2c(=O)n(CC(=O)OCc3ccccc3)cnc21 | inactive |

IN: Can you look up the reported call for CN1OC[C@@H]2CN(C(=O)c3ccc(-c4ccccc4)cc3)[C@H](c3ccc(-c4cccc(F)c4)cc3)C[C@@H]21 for me?
OUT: inactive

###

Measured inhibition accompanies every entry in the list below.
target: Nuclear receptor subfamily 5 group A member 2 (Homo sapiens) (UniProt O00482); assay: LRH-1 (NR5A2) inverse agonists, retest, confirmation, cell-based, luminescence (AID 651613); details: cell-based LRH-1 luciferase reporter, inverse agonism; at 3.6 µM; active compounds read high;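 further: HEK293T cells co-transfected with LRH-1 and StAR promoter luciferase reporter; 0% = vehicle wells and 100% = parental cells lacking receptor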
Field format: number, assumed %, no unit text.

Sample answers from the record:
| molecule | val |
| --- | --- |
| CC(NC(=O)c1ccco1)C(c1cccs1)N1CCN(c2ccccc2F)CC1 (configuration not stated) | 49.3 |
| O=C(COC(=O)c1ccc(=O)n(Cc2ccccc2)n1)Nc1ccc2c(c1)OCCO2 | 51.1 |
| CC1CCC2(CC1)NC(=O)N(CC(=O)Nc1ccc3c(c1)OCCCO3)C2=O (configuration not stated) | 46.8 |
| CCc1ccccc1NC(=O)CSc1nnc(Cn2nnc3ccccc32)n1C | 53 |
| COc1ccc(-n2c(N)c(C(=O)NCc3cccnc3)sc2=S)cc1 | 48.7 |

IN: Param readout = inhibition; param system = Nuclear receptor subfamily 5 group A member 2 (Homo sapiens) (UniProt O00482); param query = CCOc1cc(/C=C2\N=C(SC(C)C(N)=O)N(c3ccc(OC(F)F)cc3)C2=O)ccc1O (configuration not stated) ; response: value
OUT: 65.4

IN: Give recorded inhibition with Nuclear receptor subfamily 5 group A member 2 (Homo sapiens) (UniProt O00482) for the following molecule: O=C(Nc1ccccc1C(=O)Nc1nccs1)c1ccccc1
OUT: 52.8

IN: Form: Entry = COc1cc(OC)cc(C(=O)N[C@H](C(=O)OCC(=O)Nc2ccc3c(c2)OCO3)C(C)C)c1 | System = Nuclear receptor subfamily 5 group A member 2 (Homo sapiens) (UniProt O00482) | inhibition = ____
OUT: 48.1

IN: Lab note: need inhibition for CN(C)c1ccc(/C=C/c2ccc3c4ccccc4ccc3[n+]2-c2ccccc2)cc1 on Nuclear receptor subfamily 5 group A member 2 (Homo sapiens) (UniProt O00482), anyone have it?
OUT: 104

IN: So what inhibition did O=C(CCl)N(c1ccccc1)C1CCS(=O)(=O)C1 (configuration not stated) get with Nuclear receptor subfamily 5 group A member 2 (Homo sapiens) (UniProt O00482)?
OUT: 71.3

###

experiment: StAR promoter reporter inhibitors, counter-screen for LRH-1 inverse agonist project, cell-based, luminescence, high throughput (AID 651611); conditions: StAR promoter luciferase reporter counterscreen, at 3.6 µM, active compounds read high
quantityName: inhibition (%)
# unit: % | format: bare number

| compound | quantityName | unitText | val |
| --- | --- | --- | --- |
| CCOCC(=O)Nc1ccc(S(=O)(=O)NCCc2ccccc2)cc1 | inhibition | % | 10.5 |

IN: // lookup inhibition for COc1cc2nc(/C=C/c3cc(OC)c(OC)c(OC)c3)sc2cc1SC
OUT: 35.7

IN: // query inhibition value for entry CC(=O)Nc1ccc(NC(=O)CSc2nc3nc(-c4cccs4)cc(C(F)(F)F)c3c(=O)[nH]2)cc1
OUT: 8.21

IN: Endpoint output: inhibition of Cn1c2c(c(=O)n(C)c1=O)C(C(F)(F)F)(C(F)(F)F)N=C(c1ccc(Cl)cc1)N2 . Value?
OUT: 80.6

IN: Looking for the measured inhibition of COc1cc2c3c(cccc3c1)C(=O)N(CCN1CCCC1)C2=O , can you help?
OUT: 12.7

IN: Tell me the measured inhibition of Cc1ccc(NC(=O)Cc2nnc(SCC(=O)Nc3ccc(N4CCOCC4)cc3)n2C)cc1 , please.
OUT: 6.95

IN: Return reported inhibition; argument: CC1CCCN(c2cc(N(C)CCO)c([N+](=O)[O-])c3nonc23)C1 (stereo not given)
OUT: 14.3

IN: Entry under review: CC1C/C(=C\c2cccnc2)C(=O)/C(=C/c2cccnc2)C1 (stereo not given) . Reported inhibition?
OUT: 61.9

IN: Return reported inhibition; argument: CCOc1ccc(NC(=O)CN2CCN(CC(=O)Nc3ccc(OC)cc3)CC2)cc1
OUT: 9.49

IN: Recorded inhibition for O=C(c1ccco1)N1CCCC(N2CCN(c3cccc(C(F)(F)F)c3)CC2)C1 (stereo not given) , please?
OUT: -1.93
